tested on: HSkMC; assay: cytotoxicity call (relative viability < 0.9); conditions: 10 µM
Out of some 39,000 compounds screened, about 1,500 (3.8%) were called active. Shown is part of a subset that was picked to be rich in actives.
Classes used: active, inactive

>>> classification("NCc1cccc(-c2ccccc2)c1")
"inactive"
>>> classification("COc1ccc(CN(C)C[C@@H]2OCCCC[C@H](C)Oc3ccc(NC(=O)Nc4ccc(C(F)(F)F)cc4)cc3C(=O)N([C@@H](C)CO)C[C@H]2C)cc1")
"active"
>>> classification("CO[C@@H]1CN(C)C(=O)c2cc(NS(=O)(=O)CC(F)(F)F)ccc2OC[C@@H](C)N(Cc2cccnc2)C[C@@H]1C")
"inactive"
>>> classification("C[C@@H]1CCCCO[C@H](CN(C)S(=O)(=O)c2cccs2)[C@@H](C)CN([C@H](C)CO)C(=O)c2cc(NC(=O)CCC(F)(F)F)ccc2O1")
"inactive"
>>> classification("CCS(=O)(=O)N1C[C@]2(CCN(CC2)C(=O)NC2CCCC2)c2c(n(c3cc(ccc23)OC)C)[C@@H]1CO")
"inactive"
>>> classification("CC(C)NC(=O)Nc1ccc2c(c1)C(=O)N([C@@H](C)CO)C[C@@H](C)[C@H](CN(C)S(=O)(=O)c1cn(C)cn1)OCCCC[C@H](C)O2")
"inactive"
>>> classification("COc1ccc(CN(C)C[C@@H]2OCCCC[C@H](C)Oc3ccc(NC(=O)Nc4ccc(C(F)(F)F)cc4)cc3C(=O)N([C@@H](C)CO)C[C@@H]2C)cc1")
"active"

###

system: HSkMC; assay: cytotoxicity call (relative viability < 0.9); settings: 10 µM
The campaign covered roughly 39,000 compounds. About 1,500 (3.8%) were called active. This is one part of a sample in which actives are shown more often than they occur.
Classes used: yes (1) for active, no (0) for inactive

>>> classification("C[C@@H]1CN([C@@H](C)CO)C(=O)c2cccc(NC(=O)c3ccncc3)c2O[C@@H]1CN(C)S(=O)(=O)c1cccs1")
"no (0)"
>>> classification("CCOC(=O)[C@H]1C/C=C/C[C@H](C(=O)OCC)C(=O)O[C@H]2[C@@H](OC)O[C@H](CO)[C@@H](OC(=O)Nc3cccc(F)c3)[C@@H]2OC1=O")
"yes (1)"
>>> classification("Cc1noc(C)c1NC(=O)N(C)C[C@H]1OCCCC[C@@H](C)Oc2ccc(NS(=O)(=O)c3cccs3)cc2C(=O)N([C@H](C)CO)C[C@@H]1C")
"no (0)"
>>> classification("C[C@H]1CN([C@@H](C)CO)C(=O)Cc2cc(NS(=O)(=O)c3cccs3)ccc2O[C@H]1CN(C)Cc1ccc(Cl)c(Cl)c1")
"yes (1)"
>>> classification("C[C@H](CO)N1C[C@H](C)[C@H](CN(C)S(=O)(=O)c2ccccc2)Oc2c(NC(=O)C3CCOCC3)cccc2C1=O")
"no (0)"
>>> classification("Cc1ccc(-c2ccc3c(c2)O[C@H](CN(C)C(=O)CN(C)C)[C@H](C)CN([C@@H](C)CO)S3(=O)=O)cc1")
"no (0)"
>>> classification("C=CC(C)(C)c1[nH]c2ccccc2c1C1=C(O)C(=O)C(c2c[nH]c3c(CC=C(C)C)cccc23)=C(O)C1=O")
"yes (1)"
>>> classification("COc1ccc(NC(=O)N(C)C[C@@H]2OCCCC[C@@H](C)Oc3ccc(NC(=O)Nc4ccc(F)cc4)cc3C(=O)N([C@H](C)CO)C[C@@H]2C)cc1")
"no (0)"
>>> classification("C[C@@H]1CN([C@H](C)CO)C(=O)Cc2cc(NS(=O)(=O)c3cccs3)ccc2O[C@H]1CN(C)Cc1ccc(Cl)c(Cl)c1")
"yes (1)"
>>> classification("Cc1ccc(S(=O)(=O)Nc2cccc3c2O[C@@H](CN(C)S(=O)(=O)c2cccs2)[C@H](C)CN([C@@H](C)CO)C3=O)cc1")
"no (0)"
>>> classification("CO[C@@H]1[C@@H](O[C@@H]2O[C@H](C)[C@@H](O[C@H]3C[C@@](C)(O)[C@@H](OC(=O)CC(C)C)[C@H](C)O3)[C@H](N(C)C)[C@H]2O)[C@@H](CC=O)C[C@@H](C)[C@@H](O)/C=C\\C=C/C[C@@H](C)OC(=O)C[C@H]1OC(C)=O")
"no (0)"
>>> classification("CC(C)=CCC1=C(O)C(=O)c2ccccc2C1=O")
"no (0)"
>>> classification("CCCn1c(=O)[nH]c(=O)c2[nH]cnc21")
"no (0)"
>>> classification("C[C@@H]1CN([C@H](C)CO)S(=O)(=O)c2ccc(C#Cc3ccc(F)cc3)cc2O[C@H]1CN(C)C(=O)CN(C)C")
"no (0)"
>>> classification("COC1C(O)CC(=O)OC(C)CC=CC=CC(O)C(C)CC(CC=O)C1OC1OC(C)C(OC2CC(C)(O)C(OC(=O)CC(C)C)C(C)O2)C(N(C)C)C1O (configuration not stated) [KITASAMYCINS [A1 shown] ]")
"no (0)"
>>> classification("CCOC(=O)[C@H]1C/C=C/C[C@H](C(=O)OCC)C(=O)O[C@H]2[C@@H](OC)O[C@H](CO)[C@@H](OC(=O)Nc3ccccc3)[C@@H]2OC1=O")
"no (0)"
>>> classification("C[C@H]1CN([C@@H](C)CO)C(=O)c2cccc(NC(=O)Nc3cccc4ccccc34)c2O[C@H]1CN(C)C(=O)Nc1ccc(F)cc1")
"no (0)"
>>> classification("O=C(C[C@H]1CC[C@H]2[C@@H](COC[C@@H](O)CN2S(=O)(=O)c2ccc(Cl)cc2)O1)NCC1CCCCC1")
"no (0)"
>>> classification("Cc1ccc(S(N)(=O)=O)cc1")
"no (0)"
>>> classification("CO[C@H]1O[C@H](CO)[C@@H](OC(=O)Nc2ccc3c(c2)OCO3)[C@@H]2OC(=O)[C@H](Cc3cccc(Br)c3)C/C=C/C[C@@H](Cc3cccc(Br)c3)C(=O)O[C@@H]12")
"no (0)"
>>> classification("COc1ccc(NC(=O)N(C)C[C@H]2OCCCC[C@H](C)Oc3ccc(NC(=O)c4ccccc4)cc3C(=O)N([C@H](C)CO)C[C@H]2C)cc1")
"no (0)"
>>> classification("CCOC(=O)[C@H]1C/C=C/C[C@H](C(=O)OCC)C(=O)O[C@H]2[C@@H](OC)O[C@H](CO)[C@@H](OC(=O)c3ccc(Br)cc3)[C@@H]2OC1=O")
"no (0)"
>>> classification("C[C@H](CO)N1C[C@H](C)[C@H](CN(C)Cc2ccc(Cl)c(Cl)c2)Oc2ccc(NS(=O)(=O)c3cccs3)cc2CC1=O")
"no (0)"
>>> classification("C[C@@H]1CCCCO[C@H](CN(C)Cc2ccc3c(c2)OCO3)[C@H](C)CN([C@H](C)CO)C(=O)c2cc(NC(=O)Nc3ccc4c(c3)OCO4)ccc2O1")
"no (0)"
>>> classification("CNS(=O)(=O)c1ccc(C)cc1")
"no (0)"
>>> classification("CO[C@H]1O[C@H](CO)[C@@H](OC(=O)Nc2cccc(F)c2)[C@@H]2OC(=O)[C@H](Cc3cccc(Br)c3)C/C=C/C[C@@H](Cc3cccc(Br)c3)C(=O)O[C@@H]12")
"no (0)"
>>> classification("Cn1cnc(CCNC(=O)C[C@H]2CC[C@H]3[C@@H](COC[C@H](O)CN3C(=O)Nc3ccc(C(F)(F)F)cc3)O2)c1")
"no (0)"

###

test system: HSkMC (human skeletal muscle cells); assay: cytotoxicity call (relative viability < 0.9); conditions: 10 µM
The whole screen tested about 39,000 compounds, of which about 1,500 (3.8%) were called active. For the sample, actives were picked, then their nearest neighbours and some compounds at random.
Classes used: active, inactive

>>> classification("C[C@H]1CN([C@@H](C)CO)C(=O)Cc2cc(NS(C)(=O)=O)ccc2O[C@@H]1CN(C)Cc1ccc(C(F)(F)F)cc1")
"inactive"
>>> classification("C[C@@H]1CN([C@H](C)CO)C(=O)Cc2cc(NS(=O)(=O)c3ccc(Cl)cc3)ccc2O[C@@H]1CN(C)Cc1ccc(-c2ccccc2)cc1")
"active"
>>> classification("Cc1ccc(S(=O)(=O)Nc2ccc3c(c2)CC(=O)N([C@@H](C)CO)C[C@@H](C)[C@@H](CN(C)Cc2ccc(C(F)(F)F)cc2)O3)cc1")
"active"
>>> classification("C[C@H](CO)N1C[C@H](C)[C@H](CN(C)Cc2ccc(C(F)(F)F)cc2)Oc2ccc(NS(C)(=O)=O)cc2CC1=O")
"inactive"
>>> classification("C[C@H]1CN([C@@H](C)CO)C(=O)Cc2cc(NS(=O)(=O)c3ccc(Cl)cc3)ccc2O[C@@H]1CN(C)Cc1ccc(-c2ccccc2)cc1")
"inactive"
>>> classification("C[C@H]1CN([C@@H](C)CO)C(=O)Cc2cc(NS(=O)(=O)c3ccc(Cl)cc3)ccc2O[C@H]1CN(C)Cc1ccc(-c2ccccc2)cc1")
"active"
>>> classification("C[C@H](CO)N1C[C@H](C)[C@H](CN(C)Cc2ccc(-c3ccccc3)cc2)Oc2ccc(NS(=O)(=O)c3ccc(Cl)cc3)cc2CC1=O")
"inactive"
